We begin with a simple list: items and their reported growth.
- System: BT-549 breast
- assay procedure: NCI-60 one-dose screen, 48 h (100 = growth as untreated, 0 = no growth, -100 = all killed)
- condition description: 10 µM unless noted
This is part of a sample that, as a whole, favours compounds with a hit. Of some 83,000 tested, about 20% had one in any assay.
attribute measured: growth (%)

[[record]]
molecule = "Cc1ccc2nc(Cl)c(Cn3nnnc3SCc3ccccc3)cc2c1"
endpoint_unit = "%"
value = 92.3

[[record]]
molecule = "Brc1ccc(-c2cnc3nonc3n2)cc1"
endpoint_unit = "%"
value = 115

[[record]]
molecule = "COC(=O)/C(CCC=C(C)C)=C1\\[C@@H](OC(C)=O)C[C@@]2(C)[C@H]1CC(=O)[C@H]1[C@@]3(C)CCC(N4CCCC4)[C@@H](C)[C@@H]3CC[C@@]12C (some centres undefined)"
endpoint_unit = "%"
value = 92.5

[[record]]
molecule = "CC(C)CCSc1nc(Nc2ccccc2)c(C#N)c(-c2ccccc2)n1"
endpoint_unit = "%"
value = 62.1

[[record]]
molecule = "CC/C=C\\C/C=C/C=C1/C(=O)C=C[C@@H]1C/C=C\\CCCC(=O)OC"
endpoint_unit = "%"
value = -21.9

[[record]]
molecule = "Cc1c2cc[nH]c(=O)c2c(C)c2c1[nH]c1ccc(OC(=O)c3ccccc3)cc12"
endpoint_unit = "%"
value = 40.8

[[record]]
molecule = "CNCc1cccc2c1OCCOCCN(C)C(=O)CN(C)S(=O)(=O)c1ccc(cc1)-c1cnc(N)c(n1)C(=O)N2"
endpoint_unit = "%"
value = 92.4

[[record]]
molecule = "CC(=O)c1cc(-c2ccccc2N)n(-c2ccc3c(c2)OCO3)c1C"
endpoint_unit = "%"
value = 1.13

[[record]]
molecule = "CCCCCCC(=O)Nc1ncc(Cc2ccc(C)cc2)s1"
endpoint_unit = "%"
value = 59.1

